Numbers sourced from patent US20260274955A1.

molecular target: T1, Anti-CD28 Fab (SEQ ID NOs: 202, 203); assay: phage ELISA, Fab on plate, CD28 antigen as competitor
T1 construct: biotinylated and captured on neutravidin coated plates in the phage ELISA
T1 sequence (VH, as listed by the source, chain 1 of 2): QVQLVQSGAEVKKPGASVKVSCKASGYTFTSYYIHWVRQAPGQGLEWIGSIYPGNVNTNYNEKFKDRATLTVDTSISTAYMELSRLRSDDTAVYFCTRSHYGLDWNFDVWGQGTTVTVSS
T1 sequence (VL, as listed by the source, chain 2 of 2): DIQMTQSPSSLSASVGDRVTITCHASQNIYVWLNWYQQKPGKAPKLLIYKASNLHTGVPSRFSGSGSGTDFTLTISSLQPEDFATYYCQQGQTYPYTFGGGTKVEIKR
reported metric: Anti-CD28 Fab signal in the presence of CD28
Keep the answer to the number alone.

# count of solved cases: 5
binder	measured value
YCDGHLEVYMDKCL [Phage-672]	0.07
YCEGHSTEYMAKCL [Phage-676]	0.06
YCEGHSQQYMQKCL [Phage-605]	0.08
YCDGHLPLYMQKCF [Phage-652]	0.1
YCDGHSLEYMLKCL [Phage-620]	0.07

IN: What value of Anti-CD28 Fab signal in the presence of CD28 has been recorded for this entry: YCDGHVKEYMYKCL [Phage-636]
OUT: 0.06

IN: Next record, please: YCDGHMKEYMLKCL [Phage-635]
OUT: 0.06

IN: Also need YCDGHSAEYIAKCL [Phage-662] , thanks.
OUT: 0.05
